# system_under_test: Human full-length SHP2 recombinant protein (Homo sapiens (Human), UniProt Q06124)
# Sequence (Q06124 whole entry): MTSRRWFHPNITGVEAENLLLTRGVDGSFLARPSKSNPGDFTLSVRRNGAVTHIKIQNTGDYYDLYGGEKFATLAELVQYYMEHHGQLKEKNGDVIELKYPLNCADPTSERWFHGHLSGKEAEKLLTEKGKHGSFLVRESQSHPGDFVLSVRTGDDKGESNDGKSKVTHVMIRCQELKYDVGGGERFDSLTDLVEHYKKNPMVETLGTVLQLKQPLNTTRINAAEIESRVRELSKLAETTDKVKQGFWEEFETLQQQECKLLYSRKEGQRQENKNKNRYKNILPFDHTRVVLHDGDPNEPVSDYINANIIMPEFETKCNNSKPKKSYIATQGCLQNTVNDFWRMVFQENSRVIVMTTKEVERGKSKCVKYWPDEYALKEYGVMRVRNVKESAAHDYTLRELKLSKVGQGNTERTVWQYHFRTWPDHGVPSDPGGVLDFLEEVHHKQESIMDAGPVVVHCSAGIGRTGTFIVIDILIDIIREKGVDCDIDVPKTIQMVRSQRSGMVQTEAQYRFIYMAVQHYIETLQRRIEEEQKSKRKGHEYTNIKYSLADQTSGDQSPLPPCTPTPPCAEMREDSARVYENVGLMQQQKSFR
# test_name: Assay of full-length SHP2 phosphatase activity
# test_settings: DiFMUP substrate, with activating peptide
# Procedure: Example 2 Assay of Full-Length SHP2 Phosphatase Activity 1. […] IC50 values were calculated following formula 205: y=A+((B−A)/(1+((C/X)^D))), by using the XL-Fit 5.0 software.
pIC50: −log10 of the molar value.
endpoint_name: pIC50

1. C#Cc1ccc2c(c1)[C@@H](N)C1(CCN(c3ncc(Sc4ccnc(N)c4Cl)c(=O)n3C)CC1)C2
9.00
2. CC#Cc1ccc2c(c1)[C@@H](N)C1(CCN(c3nc(C)n(-c4cccc(Cl)c4Cl)c(=O)c3F)CC1)C2
8.05
3. C#Cc1ccc2c(c1)[C@@H](N)C1(CCN(c3cc(=O)n(-c4cccc(Cl)c4F)c(C)n3)CC1)C2 (atropisomer, axis not shown) [Compound 65]
8.70
